# Test: Inhibition of Staphylococcus aureus USA300 LAC quorum sensing system Agr assessed as reduction in AIP production measured after 5 hrs by UPLC-MS analysis
# Design: species or system Staphylococcus aureus subsp. aureus USA300
pIC50: −log10 of the molar value.
Readout: pIC50

1 = CCCCC/C=C/C1=C(CO)[C@@H](O)[C@H]2O[C@@]2(C/C=C(\C)C(=O)O)C1=O
2 = CC(C)=CCc1c(O)cc(C)cc1Oc1cc(C)c(C(=O)O)c(O)c1
3 = CC(C)=C[C@H]1c2c(O)cc(C)cc2Oc2cc(C)c(C(=O)O)c(O)c21
Input: Please put the 3 molecules above in a list ordered by falling pIC50. The reply should contain the labels ordered as requested.
Output: 3, 1, 2
